test: Selectivity index, ratio of IC50 for mouse J774 cells to IC50 for ring-stage of chloroquine-resistant/mefloquine-sensitive Plasmodium falciparum W2
Assay type: toxicity
settings: read-out: Ratio IC50
measured.attribute: selectivity ratio
I'd appreciate a reply containing only the number, no unit.

**Q:** Supply measured selectivity ratio of `O=C1c2cccc(F)c2C(=O)N1CCCCCCCCNc1ccnc2cc(Cl)ccc12` in your reply.
**A:** 235

**Q:** Consider the compound `O=C1c2ccc(F)cc2C(=O)N1CCCCCCNc1ccnc2cc(Cl)ccc12` . State its measured selectivity ratio.
**A:** 126

**Q:** # return recorded selectivity ratio for entry `O=C1c2ccccc2C(=O)N1CCCCCCNc1ccnc2cc(Cl)ccc12`
**A:** 130

Now consider the entry below.
**Q:** Query selectivity ratio for `O=C1c2c(Br)c(Br)c(Br)c(Br)c2C(=O)N1CCCCCCNc1ccnc2cc(Cl)ccc12`
**A:** 291
